Target: hMPV F protein of hMPV TN/93-32 (genotype B) (human metapneumovirus)
Assay: cell-based or functional assay
Please use 1.0 for IC50, plaque-reduction neutralization of hMPV TN/93-32 under 0.07 µg/mL and 0.0 for everything else, ties included.

[
  {
    "Binder": "MPV487 (antibody, V domains shown) VH: EVQLLESGGGLVQPGRSLRLSCTASGFTFDDYAMHWVRQLPGKGLEWVSGISWNSDNIGYADSVKGRFTISRDNGKNSLYLQMNSLRAEDTAFYYCAKDVRIDYDLLIGHIDYWGPGTLVTVSS VL: TQSPVTLSLSPGERATLSCRASQSFGGYCAWYQQKPGQSPRLLIYDASNRATGVPARFSGSGSGTDFTLTISSLEPEDSAVYFCQQRGNWPIFGQGTRLEI",
    "Class Name": 1.0
  },
  {
    "Binder": "MPV489 (antibody, V domains shown) VH: EVQLLESGGGLVQPGGSLRLSCAASKFTFNNYEMNWLRQAPGKGLEWVSSISSSGDTIHNADSVKGRFIISRDNAKNSLHLQMNGLRAEDTAVYYCARAGSGWAYDAFDIWGLGTMVTVSS VL: LSASVGDRVTITCRASQSISSFLNWYQQKPGKAPKLLMYAASSLPVGVPSRFSGSGSGPEYTLTISNLQPEDFATYYCQQGYSSPPTFGGGTRLEVK",
    "Class Name": 0.0
  },
  {
    "Binder": "MPV454 (antibody, V domains shown) VH: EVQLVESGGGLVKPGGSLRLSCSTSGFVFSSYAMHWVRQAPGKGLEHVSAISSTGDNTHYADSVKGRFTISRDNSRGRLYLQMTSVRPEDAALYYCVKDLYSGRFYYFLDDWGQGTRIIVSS VL: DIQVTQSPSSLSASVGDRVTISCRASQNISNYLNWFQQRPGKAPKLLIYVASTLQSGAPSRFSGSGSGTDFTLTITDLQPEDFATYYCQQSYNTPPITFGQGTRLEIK",
    "Class Name": 1.0
  },
  {
    "Binder": "MPV488 (antibody, V domains shown) VH: EVQLVQSGFEVKKPGASVKVSCKASGYNFNNYGISWVRQAPGQGLEWMGWISAYTGNTNEAQKFQGRVSMTTDTSTSTAYMEVRSLRSDDTAVYYCARDIGSSMFYSYFYGMDVWGQGTTVIVSS VL: SLSVSLGERATINCKSSESVLYNSNNENYLDWYQQKPGQPPKLLIYWASTRASGVPDRFSGSASGTDFTLTISSLQAEDVAVYYCQQYYSTPRTFGQGTKVEIK",
    "Class Name": 0.0
  }
]
